# TGI listing for each entry below
Tested on: EKVX NSCLC
Protocol notes: NCI tumour cell line growth inhibition, 48 h
Result type: TGI

| Compound | Experimental system | Value measured |
| --- | --- | --- |
| Cc1nc2ccc(Br)cc2c(=O)n1-c1nnc(C(C)(C)C)s1 | EKVX NSCLC | > 10 µM |
| COC1(OC)N=C(N)C2(C#N)C(c3ccccc3)NC3=C(CCC3)C12C#N (stereo unspecified) | EKVX NSCLC | > 100 µM |
| CC1C2CC(C(S(=O)(=O)O)C2=O)C1(C)C (stereo unspecified) | EKVX NSCLC | > 100 µM |
| O=C(NC1=C(Cl)C(=O)c2ccccc2C1=O)c1ccccc1 | EKVX NSCLC | > 100 µM |
| O=C1C=C(C2OC(CO)C(O)C2O)C(=O)N1 (stereo unspecified) | EKVX NSCLC | > 100 µM |
| COC(=O)C(=O)CC(=O)CCn1[nH]c(=O)c(Cl)c(Cl)c1=O | EKVX NSCLC | > 100 µM |
